Provenance of the data: patent US20230049231A1

- assay-target: hERG channel (Homo sapiens)
- Construct: expressed in transfected cells
- procedure-details: hERG electrophysiology, automated whole-cell patch clamp (Patchliner)
- Format: cell-based
- setup-conditions: hERG channel, whole-cell patch clamp
Measured IC50, listed per entry for reference.

Examples with answers:
O=C1CCC[C@@H]2C[C@H](c3c(O)ccc(Cl)c3Cl)CN12; > 30 µM
O=C1OC[C@@H]2C[C@H](c3c(O)ccc(Cl)c3Cl)CN12; < 30 µM
O=C1C[C@H](N2CC[C@@H](O)C2)C[C@@H]2C[C@H](c3c(O)ccc(Cl)c3Cl)CN12 (single isomer, unassigned); < 30 µM

Value lookup for IC50; key = O=C1C[C@H](NCCO)C[C@@H]2C[C@H](c3c(O)ccc(Cl)c3Cl)CN12 (single isomer, unassigned)
> 30 µM

What measured IC50 goes with NC(=O)[C@@H]1OC(=O)N2C[C@@H](c3c(O)ccc(Cl)c3Cl)C[C@@H]12 (single isomer, unassigned) ?
> 30 µM

Find the recorded IC50 belonging to C[C@H](CO)N1CC(=O)N2C[C@@H](c3c(O)ccc(Cl)c3Cl)C[C@H]2C1 (single isomer, unassigned) and report it.
> 30 µM

Look up IC50 for this compound: O=C(CC(O)C(F)F)N1CC(=O)N2C[C@@H](c3c(O)ccc(Cl)c3Cl)C[C@H]2C1 (stereo partly shown)
> 30 µM

----------
Below is a list of entries, each paired with its recorded pIC50 value.
- assay-target: hERG channel (Homo sapiens, UniProt Q12809)
- Construct: expressed in transfected cells
- Sequence (Q12809 whole entry): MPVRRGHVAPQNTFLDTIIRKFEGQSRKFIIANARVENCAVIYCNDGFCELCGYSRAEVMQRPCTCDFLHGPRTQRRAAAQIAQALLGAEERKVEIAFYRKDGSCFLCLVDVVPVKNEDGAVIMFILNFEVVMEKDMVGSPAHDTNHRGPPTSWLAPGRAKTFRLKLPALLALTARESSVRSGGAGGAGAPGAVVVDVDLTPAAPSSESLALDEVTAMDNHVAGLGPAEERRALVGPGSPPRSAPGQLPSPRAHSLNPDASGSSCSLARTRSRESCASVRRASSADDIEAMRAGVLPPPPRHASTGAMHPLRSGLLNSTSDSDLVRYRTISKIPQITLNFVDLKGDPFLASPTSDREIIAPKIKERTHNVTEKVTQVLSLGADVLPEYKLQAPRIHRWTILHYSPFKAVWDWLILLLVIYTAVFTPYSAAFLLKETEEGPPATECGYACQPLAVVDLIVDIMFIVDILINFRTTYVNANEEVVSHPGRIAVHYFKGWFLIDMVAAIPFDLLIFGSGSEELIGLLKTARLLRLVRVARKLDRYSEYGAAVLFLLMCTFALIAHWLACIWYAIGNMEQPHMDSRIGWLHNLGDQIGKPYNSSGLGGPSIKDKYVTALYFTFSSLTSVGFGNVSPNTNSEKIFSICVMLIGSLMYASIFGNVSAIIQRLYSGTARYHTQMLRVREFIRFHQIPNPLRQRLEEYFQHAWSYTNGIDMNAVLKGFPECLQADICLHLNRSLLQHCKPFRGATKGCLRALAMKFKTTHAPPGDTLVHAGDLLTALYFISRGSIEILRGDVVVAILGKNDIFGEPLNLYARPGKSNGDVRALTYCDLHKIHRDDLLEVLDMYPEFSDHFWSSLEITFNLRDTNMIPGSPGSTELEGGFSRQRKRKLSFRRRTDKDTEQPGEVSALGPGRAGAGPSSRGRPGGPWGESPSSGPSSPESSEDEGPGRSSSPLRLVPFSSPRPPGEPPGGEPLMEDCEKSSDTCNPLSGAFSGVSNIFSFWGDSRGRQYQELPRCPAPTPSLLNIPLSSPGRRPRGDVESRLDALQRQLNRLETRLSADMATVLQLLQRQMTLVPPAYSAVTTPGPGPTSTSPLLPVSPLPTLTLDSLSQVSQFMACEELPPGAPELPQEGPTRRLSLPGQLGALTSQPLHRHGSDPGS
- procedure-details: hERG electrophysiology, automated whole-cell patch clamp (Patchliner)
- Type: cell-based
- setup-conditions: hERG channel, whole-cell patch clamp
pIC50: −log10 of the molar value.

A selection of reference data follows.
N[C@H]1CC(=O)N2C[C@@H](c3c(O)ccc(Cl)c3Cl)C[C@H]2C1 (single isomer, unassigned) [Compound 189]; < 4.52
O=C([C@@H](O)CO)N1CC(=O)N2CC[C@H](c3c(O)ccc(Cl)c3Cl)C[C@@H]2C1 [Compound 64]; < 4.52

Would you kindly share the measured pIC50 for O=C(CO)NC[C@@H]1OC(=O)N2C[C@@H](c3c(O)ccc(Cl)c3Cl)C[C@@H]12 (single isomer, unassigned) [Compound 274] ?
< 4.52

----------
- assay-target: hERG channel (Homo sapiens)
- Construct: expressed in transfected cells
- procedure-details: hERG electrophysiology, automated whole-cell patch clamp (Patchliner)
- Format: cell-based
- setup-conditions: hERG channel, whole-cell patch clamp
Items are presented alongside their recorded IC50.

Find IC50 (hERG channel (Homo sapiens)) for the entry O=C(CO)N1CC(=O)N2CC[C@@H](c3c(O)ccc(Cl)c3Cl)C[C@H]2C1 [Compound 63]
< 30 µM

Give the reported IC50 for NCCN1C[C@@H]2C[C@H](c3c(O)ccc(Cl)c3Cl)CN2C1=O [Compound 292] (system: hERG channel (Homo sapiens)).
< 30 µM

Lab note: need IC50 with hERG channel (Homo sapiens) for entry CN[C@H]1CC(=O)N2C[C@@H](c3c(O)ccc(Cl)c3Cl)C[C@H]2C1 (single isomer, unassigned) [Compound 199] , please look it up.
> 30 µM

Give the reported IC50 for O=C1C[C@@H](c2cn[nH]c2)C[C@@H]2C[C@H](c3c(O)ccc(Cl)c3Cl)CN12 (single isomer, unassigned) [Compound 215] (system: hERG channel (Homo sapiens)).
> 30 µM
